Recorded values, source patent US5817689A.

target: human β3 -adrenergic receptor (Homo sapiens); construct: expressed in transfected cells; host or cells: CHO-K1 (ATCC CCL 61), clone CHO/pKREX10-36; assay: Human β3-adrenergic receptor-stimulating activity (cAMP accumulation in CHO/pKREX10-36 cells); type: cell-based; settings: ratio of EC50 β2-receptor to EC50 β3-receptor
Sequence (P13945 whole entry): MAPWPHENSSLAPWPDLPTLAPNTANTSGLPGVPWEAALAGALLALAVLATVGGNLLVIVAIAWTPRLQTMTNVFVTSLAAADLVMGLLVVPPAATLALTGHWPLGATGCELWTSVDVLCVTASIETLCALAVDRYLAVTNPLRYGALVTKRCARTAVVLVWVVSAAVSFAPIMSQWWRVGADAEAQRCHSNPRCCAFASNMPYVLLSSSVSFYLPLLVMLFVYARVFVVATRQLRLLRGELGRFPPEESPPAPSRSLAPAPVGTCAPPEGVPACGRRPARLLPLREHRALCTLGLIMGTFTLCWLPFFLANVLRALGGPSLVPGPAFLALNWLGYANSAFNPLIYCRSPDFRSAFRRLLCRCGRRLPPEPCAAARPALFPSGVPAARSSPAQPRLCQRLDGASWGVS
assayReadout: Ratio of EC50 β2 /β3

[[record]]
compound = "CC(Cc1c[nH]c2c(OCc3ccccc3)cccc12)NCC(O)c1cccc(Cl)c1 (stereo not drawn)"
result = 2.7


Note to self: Ratio of EC50 β2 /β3 recorded for OC(CNCCc1c[nH]c2ccc(Cl)cc12)c1ccccc1 (stereo not drawn) [Compound A, reference compound] was 0.5

Input COC(=O)COc1cccc2c(CC(C)NC[C@H](O)c3cccc(Cl)c3)c[nH]c12 (stereo partly drawn) . Output Ratio of EC50 β2 /β3: 14.0

The compound listed as COC(=O)COc1ccc2c(CC(C)NCC(O)c3cccc(Cl)c3)c[nH]c2c1 (stereo not drawn) shows Ratio of EC50 β2 /β3 equal to 1.3

Please fill in: Ratio of EC50 β2 /β3 reported for Cc1cccc2c(CC(C)NCC(O)c3cccc(Cl)c3)c[nH]c12 (stereo not drawn) = 2.5

Record summary for COc1ccc2c(CC(C)NCC(O)c3cccc(Cl)c3)c[nH]c2c1OC (stereo not drawn) : reported Ratio of EC50 β2 /β3 = 7.8
